- Tested on: P12-Ichikawa
- run.description: cell viability relative to DMSO control; higher = less cytotoxic
- experimental.parameters: HPLM + 10% dialyzed FBS; 48 h; 1.71 µM
outcome.measure: cell viability (%)

molecule: COc1cc(C(=O)NC2CCN(C)CC2)ccc1Nc1ncc2c(n1)N(C1CCCC1)CCC(=O)N2C(C)C
tested.target: P12-Ichikawa
outcome.measure: cell viability
experimental.value: 109
--
molecule: C/C1=C2/[N]3[Co+]456([OH])<-[N]7=C1[C@@H](CCC(N)=O)C(C)(C)/C7=C/C1=[N]->4C(=C(/C)C4=[N]->5[C@@](C)([C@H]3[C@H](CC(N)=O)[C@@]2(C)CCC(=O)NC[C@@H](C)OP(=O)([O-])O[C@H]2[C@@H](O)[C@@H](n3c[n]->6c5cc(C)c(C)cc53)O[C@@H]2CO)[C@@](C)(CC(N)=O)[C@@H]4CCC(N)=O)/[C@@](C)(CC(N)=O)[C@@H]1CCC(N)=O
tested.target: P12-Ichikawa
outcome.measure: cell viability
experimental.value: 93.2
--
molecule: C[C@]12CC[C@H]3[C@@H](CC(=C)\C4=C\C(=O)\C=C/[C@]34C)[C@@H]1CCC2=O
tested.target: P12-Ichikawa
outcome.measure: cell viability
experimental.value: 103
--
molecule: CO[C@H]1CCC(O[C@H]2C[C@H]([C@]3(C)CC[C@]4(C[C@H](O)[C@@H](C)[C@@H]([C@@H](C)/C=C(\C)C(=O)[C@H](C)C[C@H](C)C(=O)[O-])O4)O3)O[C@]3(O[C@@H]([C@H]4O[C@@](O)(CO)[C@H](C)C[C@@H]4C)C[C@@H]3C)[C@@H]2C)O[C@@H]1C (stereo not given in full)
tested.target: P12-Ichikawa
outcome.measure: cell viability
experimental.value: 80.2
--
molecule: NC(=O)c1cccc(-c2cc(Nc3ccc(OC(F)(F)F)cc3)ncn2)c1
tested.target: P12-Ichikawa
outcome.measure: cell viability
experimental.value: 102
